Recorded values, source ChEMBL document CHEMBL1129243.

Target: Metabotropic glutamate receptor 4 (Homo sapiens)
Sequence (Q14833 whole entry): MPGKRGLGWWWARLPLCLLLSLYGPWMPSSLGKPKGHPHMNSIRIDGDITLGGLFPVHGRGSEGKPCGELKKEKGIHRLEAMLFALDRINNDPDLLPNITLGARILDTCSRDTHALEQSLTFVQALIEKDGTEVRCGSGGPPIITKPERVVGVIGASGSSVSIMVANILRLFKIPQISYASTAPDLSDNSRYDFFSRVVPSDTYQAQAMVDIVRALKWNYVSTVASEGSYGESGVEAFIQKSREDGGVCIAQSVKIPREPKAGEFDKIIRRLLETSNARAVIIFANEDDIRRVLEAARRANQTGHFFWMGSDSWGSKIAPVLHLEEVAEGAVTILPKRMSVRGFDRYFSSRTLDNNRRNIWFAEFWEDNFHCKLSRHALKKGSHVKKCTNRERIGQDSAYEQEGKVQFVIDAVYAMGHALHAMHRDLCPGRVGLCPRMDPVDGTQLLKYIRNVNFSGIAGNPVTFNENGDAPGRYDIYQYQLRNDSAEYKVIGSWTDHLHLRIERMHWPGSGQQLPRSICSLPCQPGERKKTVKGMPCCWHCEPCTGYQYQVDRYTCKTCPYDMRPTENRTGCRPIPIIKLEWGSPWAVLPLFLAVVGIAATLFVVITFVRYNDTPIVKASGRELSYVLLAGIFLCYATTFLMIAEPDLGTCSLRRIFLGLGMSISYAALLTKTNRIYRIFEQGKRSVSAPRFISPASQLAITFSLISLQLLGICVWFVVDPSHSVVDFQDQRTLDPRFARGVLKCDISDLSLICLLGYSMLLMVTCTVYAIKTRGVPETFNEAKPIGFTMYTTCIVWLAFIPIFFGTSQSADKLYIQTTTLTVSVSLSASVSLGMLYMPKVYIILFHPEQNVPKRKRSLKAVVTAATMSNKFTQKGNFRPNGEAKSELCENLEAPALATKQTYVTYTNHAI
Assay: The compound was tested for effect on second messenger formation in BHK cells expressing mGluR4a
Endpoint name: EC50

N[C@H](C(=O)O)C12CC(C(=O)O)(C1)C2 = > 300 µM

In the following, a different compound is considered.
Q: What value of EC50 has been recorded for this entry: `N[C@@H](C(=O)O)C12CC(C(=O)O)(C1)C2`
Result: > 300 µM

###

Catalogue of pEC50 values
Molecular target: Metabotropic glutamate receptor 5 (Homo sapiens, UniProt P41594)
Sequence (P41594 whole entry): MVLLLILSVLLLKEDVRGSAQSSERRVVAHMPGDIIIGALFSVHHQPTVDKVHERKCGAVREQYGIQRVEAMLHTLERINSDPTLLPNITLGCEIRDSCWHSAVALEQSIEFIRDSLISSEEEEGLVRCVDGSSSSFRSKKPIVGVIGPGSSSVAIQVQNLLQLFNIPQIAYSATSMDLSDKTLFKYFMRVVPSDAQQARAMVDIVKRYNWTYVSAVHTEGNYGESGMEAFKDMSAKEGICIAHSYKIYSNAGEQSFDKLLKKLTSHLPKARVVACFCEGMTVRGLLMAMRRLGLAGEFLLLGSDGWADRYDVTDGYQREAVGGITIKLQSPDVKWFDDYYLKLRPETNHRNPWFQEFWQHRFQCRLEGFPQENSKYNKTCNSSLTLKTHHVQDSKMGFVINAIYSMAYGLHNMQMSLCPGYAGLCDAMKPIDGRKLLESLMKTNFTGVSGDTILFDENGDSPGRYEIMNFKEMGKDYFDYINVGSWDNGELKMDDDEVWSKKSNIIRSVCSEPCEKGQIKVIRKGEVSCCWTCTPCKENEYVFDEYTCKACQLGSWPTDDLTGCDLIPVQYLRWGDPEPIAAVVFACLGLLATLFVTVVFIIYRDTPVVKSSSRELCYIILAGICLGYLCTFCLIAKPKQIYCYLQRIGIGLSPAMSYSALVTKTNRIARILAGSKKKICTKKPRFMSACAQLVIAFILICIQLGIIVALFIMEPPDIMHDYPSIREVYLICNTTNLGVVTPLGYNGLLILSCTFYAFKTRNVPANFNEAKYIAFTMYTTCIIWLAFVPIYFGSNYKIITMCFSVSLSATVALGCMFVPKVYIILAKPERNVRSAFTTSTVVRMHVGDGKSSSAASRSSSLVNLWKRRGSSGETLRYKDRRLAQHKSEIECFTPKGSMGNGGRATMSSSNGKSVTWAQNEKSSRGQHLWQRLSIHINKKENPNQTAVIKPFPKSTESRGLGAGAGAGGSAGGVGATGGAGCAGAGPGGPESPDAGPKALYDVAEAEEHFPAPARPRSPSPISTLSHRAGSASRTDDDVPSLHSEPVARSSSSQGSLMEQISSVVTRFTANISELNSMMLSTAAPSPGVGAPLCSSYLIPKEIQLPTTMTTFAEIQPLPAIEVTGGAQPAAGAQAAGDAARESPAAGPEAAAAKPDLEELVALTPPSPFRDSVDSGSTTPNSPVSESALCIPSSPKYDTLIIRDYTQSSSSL
Assay: The compound was tested for effect on second messenger formation in BHK cells expressing mGluR5a
Format: functional, cell-based
pEC50: −log10 of the molar value.

N[C@@H](C(=O)O)C12CC(C(=O)O)(C1)C2 = < 3.52

Q: What value of pEC50 has been recorded for this entry: `N[C@H](C(=O)O)C12CC(C(=O)O)(C1)C2`
Result: < 3.52

###

Target: Metabotropic glutamate receptor 5 (Homo sapiens, UniProt P41594)
Assay: The compound was tested for inhibitory effect on second messenger formation in BHK cells expressing mGluR5a
Catalogue of IC50 values

N[C@H](C(=O)O)C12CC(C(=O)O)(C1)C2 = > 300 µM

In the following, a different compound is considered.
Q: What value of IC50 has been recorded for this entry: `N[C@@H](C(=O)O)C12CC(C(=O)O)(C1)C2`
Result: > 300 µM

###

Target: Metabotropic glutamate receptor 5 (Homo sapiens, UniProt P41594)
Experiment: The compound was tested for effect on second messenger formation in BHK cells expressing mGluR5a at half maximal concentration
Assay type: functional, cell-based
Endpoint name: pEC50
# log scale: pEC50 equals minus log10 of the concentration in mol/L

Q: What value of pEC50 has been recorded for this entry: `N[C@H](C(=O)O)C12CC(C(=O)O)(C1)C2`
Result: 3.99

###

Catalogue of pIC50 values
Biological target: UniProtKB Q14416
Sequence (Q14416 whole entry): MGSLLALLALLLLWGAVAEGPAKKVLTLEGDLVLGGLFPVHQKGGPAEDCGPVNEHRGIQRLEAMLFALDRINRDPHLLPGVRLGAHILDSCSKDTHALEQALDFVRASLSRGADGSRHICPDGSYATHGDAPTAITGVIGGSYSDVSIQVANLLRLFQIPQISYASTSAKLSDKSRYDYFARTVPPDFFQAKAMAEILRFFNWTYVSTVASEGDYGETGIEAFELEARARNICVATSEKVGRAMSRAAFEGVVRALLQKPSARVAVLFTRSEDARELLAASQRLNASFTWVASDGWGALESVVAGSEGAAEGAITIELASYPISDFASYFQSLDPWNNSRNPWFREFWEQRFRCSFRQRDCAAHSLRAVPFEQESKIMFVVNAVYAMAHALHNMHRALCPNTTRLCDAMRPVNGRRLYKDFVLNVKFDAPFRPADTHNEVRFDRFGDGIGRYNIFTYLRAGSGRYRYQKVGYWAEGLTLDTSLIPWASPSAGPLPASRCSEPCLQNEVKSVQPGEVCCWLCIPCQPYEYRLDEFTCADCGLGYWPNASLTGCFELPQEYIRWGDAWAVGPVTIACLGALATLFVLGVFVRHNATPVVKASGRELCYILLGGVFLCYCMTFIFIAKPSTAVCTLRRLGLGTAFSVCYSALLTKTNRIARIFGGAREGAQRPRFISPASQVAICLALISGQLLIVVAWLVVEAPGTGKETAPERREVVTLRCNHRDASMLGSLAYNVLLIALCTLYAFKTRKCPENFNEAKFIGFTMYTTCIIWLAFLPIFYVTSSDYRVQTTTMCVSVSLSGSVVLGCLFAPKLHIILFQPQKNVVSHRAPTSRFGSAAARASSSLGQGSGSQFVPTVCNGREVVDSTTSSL
Experiment: The compound was tested for inhibitory effect on second messenger formation in BHK cells expressing mGluR2
pIC50: −log10 of the molar value.

N[C@@H](C(=O)O)C12CC(C(=O)O)(C1)C2 = < 3.52

Q: What value of pIC50 has been recorded for this entry: `N[C@H](C(=O)O)C12CC(C(=O)O)(C1)C2`
Result: < 3.52
